- tgt: recombinant DYRK1A kinase (Homo sapiens (Human))
- method-summary: DYRK1A kinase assay (Ser/Thr 18 peptide Z-lyte FRET assay)
- conditions-used: recombinant DYRK1A 0.25 µg/mL, ATP 15 µM, Ser/Thr peptide 18 4 µM, one hour at room temperature; table head prints EC50, method says IC50
measured-metric: EC50 (nM)
Kindly provide the numeric value in nM only, without the unit symbol.

Previously resolved entries follow.
> print(dat)
                         structure.notation  measured.metric  value.unit  recorded.result
1  CC(=O)N1CC[C@H](Nc2ncc3c(-c4ccc5nc(C)n(CC(F)F)c5n4)ccn3n2)[C@H](F)C1             EC50          nM                4
2  C[C@]1(O)C[C@@H](Nc2ncc3c(-c4cnc5ncccc5c4)ccn3n2)C1             EC50          nM                5
3  COC[C@@H](C)Nc1ncc2c(-c3cnc4nccn4c3)ccn2n1             EC50          nM              101

Retrieve EC50 measured for `FC1(F)CCC(Nc2ncc3c(-c4ccc5nccn5c4)ccn3n2)CC1` and print it. 19
